# System: MDA-MB-468 breast
# assay remarks: NCI tumour cell line growth inhibition, 48 h
observable: log10 of TGI (log10 of the value in µM)

molecule	assay system	log10 of TGI
CN(C)CCC=C1c2ccccc2C(C)(C)c2ccccc21	MDA-MB-468 breast	1.15
CCCC[n+]1c(/C=C\c2c(OC)cc(OC)cc2OC)ccc2ccccc21	MDA-MB-468 breast	0.14
CN1CC[C@]2(c3cccc(O)c3)CC(=O)/C(=C/c3ccccc3)[C@H]1C2	MDA-MB-468 breast	0.79
CCN(Cc1ccccc1Cl)c1ccc(CO)c(Cl)c1	MDA-MB-468 breast	-0.94
CC[C@@H](C(=O)[C@H](C)[C@H](O)[C@@H](C)[C@H]1O[C@H]([C@@H](CC)C(=O)O)CC[C@H]1C)C1O[C@]2(C=C[C@@H](O)[C@]3(CC[C@@](C)([C@H]4CC[C@](O)(CC)[C@H](C)O4)O3)O2)[C@H](C)C[C@@H]1C (stereo partly drawn)	MDA-MB-468 breast	0.27
CCN1C(=O)N(CC)C2NNC(Sc3c(C(=O)O)c4ccccc4n(C4CCCC4)c3=O)=NC21 (stereo not drawn)	MDA-MB-468 breast	0.78
C=C1CCC2C3(C)COC(c4c(OC)cccc4OC)OC3CCC2(C)C1C/C=C1/C(=O)OCC1O (stereo not drawn)	MDA-MB-468 breast	0.53
C=C1CC[C@@H]2[C@]3(C)COC(c4cn[nH]c4-c4ccc(OC)cc4)O[C@@H]3CC[C@@]2(C)[C@@H]1C/C=C1/C(=O)OCC1O (stereo partly drawn)	MDA-MB-468 breast	0.75

====

# Tested on: MDA-MB-468 breast
# assay remarks: NCI tumour cell line growth inhibition, 48 h
observable: TGI (µM)

> print(dat)
                                   molecule  observable  unit.text  sign  data.value
1  COc1cccc(-n2cc(-c3nc(Nc4cc(C)[nH]n4)c4ccccc4n3)nn2)c1         TGI         µM     =        15.7
2  Nc1ccccc1NC(=O)c1ccc(CN2CCC/C(=C\c3ccccn3)C2=O)cc1         TGI         µM     =        3.88
3  O=C(O)C1C2C=CC(C2)C1C(=O)O (stereo not given)         TGI         µM     >         100
4            CNc1cc2nc3cc(NC)c(C)cc3cc2cc1C         TGI         µM     =        1.94
5  COc1ccc(-c2nn(-c3cccc(NC(=O)Nc4ccccc4)c3)cc2-c2ccncc2)cc1Cl         TGI         µM     =        6.43

====

# Tested on: MDA-MB-468 breast
# assay remarks: NCI tumour cell line growth inhibition, 48 h; in the data active means GI50 below about 0.43 µM; inactive means the rest
Possible outcomes: y = active, n = inactive

> print(dat)
                                   compound       assay.system  assigned.category
1  O=C(O)C1C2C=CC(C2)C1C(=O)O (stereo unspecified)  MDA-MB-468 breast                  n
2  CCCCCc1cc[n+](CC(=O)c2ccc([N+](=O)[O-])cc2)cc1  MDA-MB-468 breast                  n
3  Cc1[nH]c(C(=O)Nc2ccccc2OC2CCNCC2)c(Cl)c1Cl  MDA-MB-468 breast                  n
4  COc1cccc(-n2cc(-c3nc(Nc4cc(C)[nH]n4)c4ccccc4n3)nn2)c1  MDA-MB-468 breast                  n
5  Nc1ccc(-c2nnc(SCc3ccc(O)c4ncccc34)o2)cc1  MDA-MB-468 breast                  y
6               Clc1nc(Cl)c2c3c(sc2n1)CCCC3  MDA-MB-468 breast                  n
